experiment: Pharmacokinetics after single subcutaneous dose (500 mg/kg); type: in vivo, BALB/c mice; conditions: BALB/c, mouse, sc; subcutaneous 500 mg/kg, plasma

molecule	AUC(0-t) (µg·h/mL)
CC(O)COC[C@H]1O[C@@H]2O[C@H]3[C@H](O)[C@@H](O)[C@@H](O[C@H]4[C@H](O)[C@@H](O)[C@@H](O[C@H]5[C@H](O)[C@@H](O)[C@@H](O[C@H]6[C@H](O)[C@@H](O)[C@@H](O[C@H]7[C@H](O)[C@@H](O)[C@@H](O[C@H]8[C@H](O)[C@@H](O)[C@@H](O[C@H]1[C@H](O)[C@H]2O)O[C@@H]8COCC(C)O)O[C@@H]7COCC(C)O)O[C@@H]6COCC(C)O)O[C@@H]5COCC(C)O)O[C@@H]4COCC(C)O)O[C@@H]3COCC(C)O (stereo partly drawn) [HPβCD, 2-hydroxypropyl-β-cyclodextrin]	4020

====

experiment: Pharmacokinetics after single intravenous dose (100 mg/kg); assay type: in vivo, BALB/c mice; conditions: BALB/c, mouse; intravenous 100 mg/kg, plasma
measure: Tmax (min)

compound	observed
CC(O)COC[C@H]1O[C@@H]2O[C@H]3[C@H](O)[C@@H](O)[C@@H](O[C@H]4[C@H](O)[C@@H](O)[C@@H](O[C@H]5[C@H](O)[C@@H](O)[C@@H](O[C@H]6[C@H](O)[C@@H](O)[C@@H](O[C@H]7[C@H](O)[C@@H](O)[C@@H](O[C@H]8[C@H](O)[C@@H](O)[C@@H](O[C@H]1[C@H](O)[C@H]2O)O[C@@H]8COCC(C)O)O[C@@H]7COCC(C)O)O[C@@H]6COCC(C)O)O[C@@H]5COCC(C)O)O[C@@H]4COCC(C)O)O[C@@H]3COCC(C)O (stereo partly drawn) [HPβCD, 2-hydroxypropyl-β-cyclodextrin]	4.98

====

experiment: Pharmacokinetics after single intravenous dose (100 mg/kg); assay type: in vivo, BALB/c mice; conditions: BALB/c, mouse; intravenous 100 mg/kg, plasma

compound	units-of-measure	AUC(0-t)
CC(O)COC[C@H]1O[C@@H]2O[C@H]3[C@H](O)[C@@H](O)[C@@H](O[C@H]4[C@H](O)[C@@H](O)[C@@H](O[C@H]5[C@H](O)[C@@H](O)[C@@H](O[C@H]6[C@H](O)[C@@H](O)[C@@H](O[C@H]7[C@H](O)[C@@H](O)[C@@H](O[C@H]8[C@H](O)[C@@H](O)[C@@H](O[C@H]1[C@H](O)[C@H]2O)O[C@@H]8COCC(C)O)O[C@@H]7COCC(C)O)O[C@@H]6COCC(C)O)O[C@@H]5COCC(C)O)O[C@@H]4COCC(C)O)O[C@@H]3COCC(C)O (stereo partly drawn) [HPβCD, 2-hydroxypropyl-β-cyclodextrin]	µg·h/mL	1860

====

assay: Pharmacokinetics after single intravenous dose (100 mg/kg); type: in vivo, BALB/c mice; conditions: BALB/c, mouse, in vivo, iv, 100 mg/kg
measure: concentration at 24 h (ng/mL)

compound	observed
CC(O)COC[C@H]1O[C@@H]2O[C@H]3[C@H](O)[C@@H](O)[C@@H](O[C@H]4[C@H](O)[C@@H](O)[C@@H](O[C@H]5[C@H](O)[C@@H](O)[C@@H](O[C@H]6[C@H](O)[C@@H](O)[C@@H](O[C@H]7[C@H](O)[C@@H](O)[C@@H](O[C@H]8[C@H](O)[C@@H](O)[C@@H](O[C@H]1[C@H](O)[C@H]2O)O[C@@H]8COCC(C)O)O[C@@H]7COCC(C)O)O[C@@H]6COCC(C)O)O[C@@H]5COCC(C)O)O[C@@H]4COCC(C)O)O[C@@H]3COCC(C)O (stereo partly drawn) [HPβCD, 2-hydroxypropyl-β-cyclodextrin]	4950

====

assay: in vivo; settings: BALB/c, mouse, sc, 500 mg/kg, AUClast, liver
measure: AUC(0-t) (µg·h/mL)

compound	measure	units-of-measure	observed
CC(O)COC[C@H]1O[C@@H]2O[C@H]3[C@H](O)[C@@H](O)[C@@H](O[C@H]4[C@H](O)[C@@H](O)[C@@H](O[C@H]5[C@H](O)[C@@H](O)[C@@H](O[C@H]6[C@H](O)[C@@H](O)[C@@H](O[C@H]7[C@H](O)[C@@H](O)[C@@H](O[C@H]8[C@H](O)[C@@H](O)[C@@H](O[C@H]1[C@H](O)[C@H]2O)O[C@@H]8COCC(C)O)O[C@@H]7COCC(C)O)O[C@@H]6COCC(C)O)O[C@@H]5COCC(C)O)O[C@@H]4COCC(C)O)O[C@@H]3COCC(C)O (stereo partly drawn) [HPβCD, 2-hydroxypropyl-β-cyclodextrin]	AUC(0-t)	µg·h/mL	127
